tube area decrease: recorded values
experiment: inhibition of endothelial tube formation, primary screen, imaging, VEGF stimulated, CD31 staining, tube area, NPC library (AID 1117340); details: VEGF-stimulated ADSC/ECFC co-culture, at 10 µM, stronger effect = higher value
State the answer as a number, implicitly in %.

## Task Name the reported tube area decrease value associated with the molecule CCOC(=O)C1=C(C)NC(C)=C(C(=O)OCC)C1c1ccccc1/C=C/C(=O)OC(C)(C)C
## Result 101

* * *

Quick list: viability decrease per entry.
experiment: growth inhibition of GSK3B-pretreated HCT116 cells – cell-based, CellTiter-Glo, 0.2 to 20 µM (AID 1117336); details: HCT116 viability after GSK3B inhibitor, at 20 µM, stronger effect = higher value
Active and inactive are the calls of the source.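 Rule for the calls: active = compounds lowering colon cancer cell viability after pretreatment blocking the GSK3B kinase; inactive = the rest.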

Sample records with viability decrease:
COc1ccc2cc1Oc1ccc(cc1)C[C@H]1c3c(cc4c(c3Oc3cc5c(cc3OC)CCN(C)[C@@H]5C2)OCO4)CCN1C	98.1% (active)
O=C(Nc1ccc([N+](=O)[O-])cc1Cl)c1cc(Cl)ccc1O	99.7% (active)
CCCc1nc(C)c2c(=O)[nH]c(-c3cc(S(=O)(=O)N4CCN(CC)CC4)ccc3OCC)nn12	-11.4% (inactive)

Okay, now this compound:
## Task Fill in: viability decrease of CC(C)(C)NC(=O)[C@@H]1CN(Cc2cccnc2)CCN1C[C@@H](O)C[C@@H](Cc1ccccc1)C(=O)N[C@H]1c2ccccc2C[C@H]1O is ___
## Result -0.8% (inactive)

* * *

Quick reference: inhibition of the listed items.
assay: CRL1545 cell growth, single agent and combined, cisplatin and BGB IC20 combos (AID 1671464); conditions: CRL1545 osteosarcoma cells, single agent, at 5 µM, stronger effect = higher value;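 also: cells exposed to compound for 96 hours before readout; 0% = vehicle DMSO and 100% = high DMSO killing control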
Provide the reading as a plain figure in %.

CCN1CCN(c2cc3c(cc2F)c(=O)c(C(=O)O)cn3C2CC2)CC1	12.7
O=C(O)CCCCCCCC(=O)O	-52.1
Nc1nc(=S)c2[nH]cnc2[nH]1	77.7
CCn1cc(C(=O)O)c(=O)c2cc3c(cc21)OCO3	12.2

## Task Recorded inhibition of O=NN(CCCl)C(=O)NCCCl , please.
## Result 10.1

## Task Follow-up item: NC(=O)NO
## Result -5.37

## Task Same question, O=C(O)P(=O)(O)O this time
## Result -82.1

## Task Subsequent entry: O=c1oc2c(O)c(O)cc3c(=O)oc4c(O)c(O)cc1c4c23
## Result 12.2

## Task Do the same for Cc1oncc1C(=O)Nc1ccc(C(F)(F)F)cc1 please
## Result 28.1

## Task Then Nc1nc2c(ncn2COC(CO)CO)c(=O)[nH]1 ?
## Result 93.9

## Task Could you do the same for C[C@H]1COc2c(C3(N)CC3)c(F)cc3c(=O)c(C(=O)O)cn1c23 , please?
## Result 10.7

* * *

test: stimulators of insulin release from INS-1E, primary screen, cell-based, 5 mM glucose, NPC library (AID 1117329); conditions: rat INS-1E insulin secretion, at 10 µM; also: reference of the scale not given here
Activity calls are given as the source filed them.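 Rule for the calls: active = compound raises insulin release from rat beta cells at 5 mM glucose, no numeric limit stated; inactive = the rest.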
Your answer must be one of the following: true for active, false for inactive

Solved entries:
CC(C)NNC(=O)c1ccncc1	false
Cc1cn[nH]c1	false
CN(C)CC[C@@H](c1ccc(Cl)cc1)c1ccccn1	true
Nc1ccc(S(N)(=O)=O)cc1	false
O=c1oc2cc(O)ccc2s1	false

## Task Identify the outcome logged in this assay for the molecule shown: COc1cc2c(cc1OC)C(=O)C(CC1CCN(Cc3ccccc3)CC1)C2 (stereo not given)
## Result false

## Task // same read-out, input: COC(=O)Nc1nc2ccc(S(=O)c3ccccc3)cc2[nH]1 (stereo not given)
## Result false

## Task Likewise for CCC(=O)O[C@H]1[C@H](O[C@@H]2[C@@H](C)[C@H](O[C@H]3C[C@@](C)(OC)[C@@H](O)[C@H](C)O3)[C@@H](C)C(=O)O[C@H](CC)[C@@](C)(O)[C@H](O)[C@@H](C)C(=O)[C@H](C)C[C@@]2(C)O)O[C@H](C)C[C@@H]1N(C)C ?
## Result false

## Task Could you do the same for Fc1ccc(C(c2ccc(F)cc2)N2CCN(C/C=C/c3ccccc3)CC2)cc1 , please?
## Result false

## Task Let us now turn to O=C(N[C@H](CO)[C@H](O)c1ccc([N+](=O)[O-])cc1)C(Cl)Cl
## Result false

* * *

test: Wnt pathway potentiators raising nuclear beta-catenin – imaging, WNT3A-conditioned medium, mouse C2C12, NPC library, primary screen (AID 1117326); settings: at 10 µM, stronger effect = higher value; also: reference of the scale not given here
readout: nuclear beta-catenin stimulation (%)
# value in %; strip the unit string

Sample answers from the record:
CC(=O)Nc1ccc(S(=O)(=O)Nc2ccc([N+](=O)[O-])cc2)cc1	1.1
CO/N=C1\CN(c2nc3c(cc2F)c(=O)c(C(=O)O)cn3C2CC2)CC1CN (stereo not given)	4.1
Cc1cc(NC(=O)C2=C(O)c3ccccc3S(=O)(=O)N2C)no1	4
O=C1OCCN1/N=C/c1ccc([N+](=O)[O-])o1	1.7
Cc1ccsc1/C=C/C1=NCCCN1C	-0.7
C#CCN(C)Cc1ccccc1	2.1
COc1ccc(CN(CCN(C)C)c2ncccn2)cc1	1.3
COc1cc(/C=C/C(=O)CC(=O)/C=C/c2ccc(O)c(OC)c2)ccc1O	1.5
O=C(O)[C@@H](O)[C@H](O)[C@H](O)[C@@H](O)C(=O)O	-1.3
CN(C)CC[C@@H](c1ccc(Cl)cc1)c1ccccn1	-1.2

Attention now shifts to the item below.
## Task nuclear beta-catenin stimulation for Nc1nnc(-c2cccc(Cl)c2Cl)c(N)n1 ?
## Result 0.7

* * *

assay: HCT116 colon cancer cell growth inhibition, primary screen, CellTiter-Glo luminescence, NPC library (AID 1117342); details: at 20 µM (top of the series)
Listing of recorded inhibition of viability by entry.
# number only, unit % dropped from output

C[C@H](N)[C@H](O)c1cccc(O)c1	-3.1
NC(=O)NC1NC(=O)NC1=O (configuration not stated)	8
Cc1c(Cl)cccc1Nc1ccccc1C(=O)O	35.6
c1cnc(N2CCN(Cc3ccc4c(c3)OCO4)CC2)nc1	4.13
CCCc1c(OCCCCc2nn[nH]n2)ccc(C(C)=O)c1O	54.3

## Task Form field: reported inhibition of viability of Cc1c(C(N)=O)cc([N+](=O)[O-])cc1[N+](=O)[O-]
## Result -20

## Task Similarly, CC1(C)S[C@@H]2[C@H](NC(=O)C(C(=O)O)c3ccccc3)C(=O)N2[C@H]1C(=O)O (some centres not stated) ?
## Result -4.4

## Task Similarly, CCN(CCCc1ccccc1)CCCc1ccccc1 ?
## Result 41.4

## Task Okay, and O=C1[C@H]2CCCC[C@H]2C(=O)N1CCCCN1CCN(c2nsc3ccccc23)CC1 ?
## Result 88.1

## Task Moving on to the next compound: O=C1CCc2ccc(OCCCCN3CCN(c4cccc(Cl)c4Cl)CC3)cc2N1
## Result 99.4

## Task Moving on to the next compound: CN(C)CCC(c1ccccc1)c1ccccn1 (configuration not stated)
## Result 3.55

## Task Next compound up: CCCN1CCCC[C@H]1C(=O)Nc1c(C)cccc1C
## Result 3.1

* * *

assay: growth inhibition, single agents and combos, HD-MB03, cell-based, BGB or cisplatin IC20 combos, synergistic combos for chromothripsis tumors (AID 1671455); conditions: HD-MB03 medulloblastoma cells, measured here: combo with cisplatin at IC20, at 0.5 µM, stronger effect = higher value;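 also: 0% = vehicle DMSO and 100% = high DMSO as cytotoxic control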
readout: inhibition (%)
Give the number; % is assumed, so skip it.

O=c1c(O)c(-c2ccc(O)c(O)c2)oc2cc(O)cc(O)c12	-14
Nc1nc2c(ncn2COC(CO)CO)c(=O)[nH]1	-11.1
NC(=O)NO	-8.29
Cc1nc2ccc(CN(C)c3ccc(C(=O)N[C@@H](CCC(=O)O)C(=O)O)s3)cc2c(=O)[nH]1	79.7
O=C(O)CCCCCCCC(=O)O	-19.9
Cc1ccnc2c1NC(=O)c1cccnc1N2C1CC1	-23.9
C[C@H]1COc2c(C3(N)CC3)c(F)cc3c(=O)c(C(=O)O)cn1c23	-11.8
CC(N)C12CC3CC(CC(C3)C1)C2 (stereo not given)	-22.1

## Task Record request: inhibition value, item O=NN(CCCl)C(=O)NCCCl
## Result -3.83

## Task How about Nc1[nH]c(=O)ncc1F ?
## Result 10.4

* * *

assay: Wnt pathway potentiators raising nuclear beta-catenin – imaging, WNT3A-conditioned medium, mouse C2C12, NPC library, primary screen (AID 1117326); details: stimulation, at 2 µM, stronger effect = higher value; also: reference of the scale not given here
nuclear beta-catenin stimulation by entry:
Could you give me the number in %? Just the number is fine.

Previously resolved entries follow.
Cc1ccsc1/C=C/C1=NCCCN1C	0.1
CCN(CC)C(C)CN1c2ccccc2Sc2ccccc21 (stereo unspecified)	0.5

## Task Which nuclear beta-catenin stimulation value belongs to COC(=O)C1=C(C)NC(C)=C(C(=O)OCC(C)C)C1c1ccccc1[N+](=O)[O-] (stereo unspecified) ?
## Result 3.3

The values you see were collected from PubChem BioAssay.
